// molecules with reported IC50 on RAC-beta serine/threonine-protein kinase (Homo sapiens), multi-publication

Look over these answered cases.
>  <molecule>
Cn1ncc(-c2ccncc2)c1-c1ccc2c(c1)CN([C@H](CN)Cc1cccc(F)c1)C2=O

>  <IC50>
> 5000 nM

$$$$
>  <molecule>
Cc1c[nH]c2ncnc(N3C[C@H]4CC[C@@H](C3)N4C(=O)[C@H](CNC(C)C)c3ccc(Cl)cc3)c12

>  <IC50>
3.9 nM

$$$$

Find the measured IC50: item NC1(c2ccc(-c3nc4c(cc3-c3ccccc3)N(CCF)C(=O)CO4)cc2)CCC1 , target or system RAC-beta serine/threonine-protein kinase (Homo sapiens). ≤ 100 nM

Find the measured IC50: item CC1(O)CC(N)(c2ccc(-c3nc4n(c3-c3ccccc3)COc3ccc(C(=O)NCCO)cc3-4)cc2)C1 (stereo not shown) , target or system RAC-beta serine/threonine-protein kinase (Homo sapiens). 0.57 nM

Find the measured IC50: item COCCc1nnc2n1-c1cc(-c3ccccc3)c(-c3ccc(C4(N)CCC4)cc3)nc1OC2 , target or system RAC-beta serine/threonine-protein kinase (Homo sapiens). 1000 to 10000 nM

Find the measured IC50: item NC1(c2ccc(-c3nc4c(ccn5c(C6CC6)nnc45)cc3-c3ccccc3)cc2)CCC1 , target or system RAC-beta serine/threonine-protein kinase (Homo sapiens). 33.8 nM

Find the measured IC50: item NC[C@H](Cc1ccc(Cl)c(Cl)c1)NC(=O)c1cc2c(s1)CCCn1ncc(Cl)c1-2 , target or system RAC-beta serine/threonine-protein kinase (Homo sapiens). 25 nM

* * *

// compounds with reported IC50 on RAC-beta serine/threonine-protein kinase (Homo sapiens), multi-publication

Look over these answered cases.
>  <compound>
Cn1ncc(Cl)c1-c1ccc2c(n1)CN([C@H](CN)Cc1cccc(F)c1)C2=O

>  <IC50>
0.5 to 5 µM

$$$$
>  <compound>
c1ccc(-c2cc3cnc4nc(N5CCOCC5)nn4c3nc2-c2ccc(CN3CCC(c4nnc(-c5ccccn5)[nH]4)CC3)cc2)cc1

>  <IC50>
0.0338 µM

$$$$
>  <compound>
Cn1ncc(Cl)c1-c1ccc2c(c1)CN([C@H](CN)CC1CCCCC1)C2=O

>  <IC50>
< 0.5 µM

$$$$

Find the measured IC50: item N#CCN1CCOc2nc(-c3ccc(C4(N)CCC4)cc3)c(-c3ccccc3)cc21 , target or system RAC-beta serine/threonine-protein kinase (Homo sapiens). ≤ 0.1 µM

Find the measured IC50: item CN(C)C(=O)c1ccc2c(c1)OCn1c-2nc(-c2ccc(C3(N)CC(C)(O)C3)cc2)c1-c1ccccc1 (centres unmarked) , target or system RAC-beta serine/threonine-protein kinase (Homo sapiens). 0.0035 µM

Find the measured IC50: item NC[C@H](Cc1ccc(F)c(F)c1)NC(=O)c1cc2c(o1)CCCn1ncc(Cl)c1-2 , target or system RAC-beta serine/threonine-protein kinase (Homo sapiens). 0.312 µM

Find the measured IC50: item CC1Oc2nc(-c3ccc(C4(N)CCC4)cc3)c(-c3ccccc3)cc2N(CC#N)C1=O (centres unmarked) , target or system RAC-beta serine/threonine-protein kinase (Homo sapiens). 0.1 to 1 µM

Find the measured IC50: item NC1(c2ccc(-c3nc4c(cc3-c3ccccc3)-n3cnnc3CO4)cc2)CCC1 , target or system RAC-beta serine/threonine-protein kinase (Homo sapiens). 1 to 10 µM

Find the measured IC50: item CC(C)N1C(=O)COc2nc(-c3ccc(C4(N)CCC4)cc3)c(-c3ccccc3)cc21 , target or system RAC-beta serine/threonine-protein kinase (Homo sapiens). 0.1 to 1 µM

Find the measured IC50: item CN1CCOc2nc(-c3ccc(C4(N)CCC4)cc3)c(-c3ccccc3)cc21 , target or system RAC-beta serine/threonine-protein kinase (Homo sapiens). 1 to 10 µM

Find the measured IC50: item N#CCCCCN1C(=O)COc2nc(-c3ccc(C4(N)CCC4)cc3)c(-c3ccccc3)cc21 , target or system RAC-beta serine/threonine-protein kinase (Homo sapiens). 0.1 to 1 µM

Find the measured IC50: item CC(C)NC[C@@H](C(=O)N1C2CCC1CN(c1ncnc3c1N(CCO)CC(=O)N3)C2)c1ccc(Cl)cc1 , target or system RAC-beta serine/threonine-protein kinase (Homo sapiens). ≥ 1 µM

Find the measured IC50: item CN1Cc2nc(-c3ccc(C4(N)CCC4)cc3)c(-c3ccccc3)cc2N(C)C1=O , target or system RAC-beta serine/threonine-protein kinase (Homo sapiens). 0.1 to 1 µM

Find the measured IC50: item N#CCN1C(=O)COc2nc(-c3ccc([C@]4(N)C[C@@H](O)C4)cc3)c(-c3ccccc3)cc21 , target or system RAC-beta serine/threonine-protein kinase (Homo sapiens). 0.1 to 1 µM

Find the measured IC50: item CCNC(=O)N1CCOc2nc(-c3ccc(C4(N)CCC4)cc3)c(-c3ccccc3)cc21 , target or system RAC-beta serine/threonine-protein kinase (Homo sapiens). > 10 µM

Find the measured IC50: item Cc1cc2ncc3cc(-c4ccccc4)c(-c4ccc([C@]5(N)C[C@@](O)(C6CC6)C5)cc4)nc3n2n1 , target or system RAC-beta serine/threonine-protein kinase (Homo sapiens). 0.029 µM

Find the measured IC50: item NC[C@H](Cc1cccc(F)c1F)NC(=O)c1cc2c(s1)CCCn1ncc(Br)c1-2 , target or system RAC-beta serine/threonine-protein kinase (Homo sapiens). 0.045 µM

Find the measured IC50: item Cn1nccc1-c1ccc2c(c1)CN([C@H](CN)Cc1cc(F)cc(F)c1)C2=O , target or system RAC-beta serine/threonine-protein kinase (Homo sapiens). < 0.5 µM

Find the measured IC50: item Cn1ncc(Cl)c1-c1cc2c(cn1)C(=O)N([C@H](CN)Cc1cc(F)cc(F)c1)C2 , target or system RAC-beta serine/threonine-protein kinase (Homo sapiens). < 0.5 µM

Find the measured IC50: item CN(C)c1nnc2n1-c1cc(-c3ccccc3)c(-c3ccc(C4(N)CCC4)cc3)nc1OC2 , target or system RAC-beta serine/threonine-protein kinase (Homo sapiens). 1 to 10 µM

Find the measured IC50: item Cn1ncc(Cl)c1-c1cnc2c(c1)CN([C@H](CN)Cc1cccc(F)c1)C2=O , target or system RAC-beta serine/threonine-protein kinase (Homo sapiens). < 0.5 µM

Find the measured IC50: item Clc1ccc(-c2ccc(CN3CCN(c4ncnc5[nH]nc(Br)c45)CC3)o2)cc1 , target or system RAC-beta serine/threonine-protein kinase (Homo sapiens). > 2 µM

Find the measured IC50: item FC(F)(F)c1ccc(CN2CCN(c3ncnc4[nH]nc(Br)c34)CC2)cc1 , target or system RAC-beta serine/threonine-protein kinase (Homo sapiens). > 2 µM

Find the measured IC50: item Cn1ncc(Cl)c1-c1ccc2c(c1)CN([C@H](CN)Cc1ccsc1)C2=O , target or system RAC-beta serine/threonine-protein kinase (Homo sapiens). < 0.5 µM

Find the measured IC50: item C=CCNC(=O)C1CCN(Cc2ccc(-c3nc4c(cnc5cc(C)nn54)cc3-c3ccccc3)cc2)CC1 , target or system RAC-beta serine/threonine-protein kinase (Homo sapiens). 0.578 µM

Find the measured IC50: item Brc1n[nH]c2ncnc(N3CCN(Cc4cccc(OCc5ccccc5)c4)CC3)c12 , target or system RAC-beta serine/threonine-protein kinase (Homo sapiens). > 2 µM

Find the measured IC50: item NCc1ccc(-c2nc3c(cc2-c2ccccc2)N(CC(F)(F)F)C(=O)CO3)cc1 , target or system RAC-beta serine/threonine-protein kinase (Homo sapiens). 0.1 to 1 µM

Find the measured IC50: item Cn1ncc(C#N)c1-c1ccc2c(c1)CN([C@H](CN)Cc1cccc(F)c1)C2=O , target or system RAC-beta serine/threonine-protein kinase (Homo sapiens). < 0.5 µM
